Molecular target: hCA IV (Homo sapiens, UniProt P22748)
Construct: gene CA4; recombinant, obtained in-house as reported earlier
Sequence (P22748 19-284): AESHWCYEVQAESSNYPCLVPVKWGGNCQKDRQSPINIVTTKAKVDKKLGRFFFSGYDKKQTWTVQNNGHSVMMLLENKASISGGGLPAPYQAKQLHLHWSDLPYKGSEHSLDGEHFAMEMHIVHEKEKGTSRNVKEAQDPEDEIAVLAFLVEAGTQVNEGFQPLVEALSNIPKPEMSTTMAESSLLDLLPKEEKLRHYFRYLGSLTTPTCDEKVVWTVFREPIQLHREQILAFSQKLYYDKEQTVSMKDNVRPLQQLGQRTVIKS
Test: stopped-flow CO2 hydrase assay
Assay type: biochemical
Assign Ki to each entry below.
One number for each entry, in nM.

smi=N#Cc1c(-c2ccccc2Cl)nc2c(nnn2-c2ccc(S(N)(=O)=O)cc2)c1N reported_measurement=2580

For each entry beneath this line, provide reported Ki.
1. N#Cc1nnn(-c2ccc(S(N)(=O)=O)cc2)c1NS(=O)(=O)c1ccccc1
2. N#Cc1nnn(-c2ccc(S(N)(=O)=O)cc2)c1N
3. N#Cc1c(N)c2nnn(-c3ccc(S(N)(=O)=O)cc3)c2[nH]c1=O
4. N#Cc1nnn(-c2ccc(S(N)(=O)=O)cc2)c1/N=C/c1ccc(Cl)cc1

[reply]
4520
2270
167
4670

For each entry beneath this line, provide reported Ki.
1. Cc1ccc(S(=O)(=O)Nc2c(C#N)nnn2-c2ccc(S(N)(=O)=O)cc2)cc1
2. N#Cc1c(-c2ccccc2)nc2c(nnn2-c2ccc(S(N)(=O)=O)cc2)c1N

[reply]
1: 2610; 2: 676

----------
Assign inhibition at 10 µM to each entry below.
Tested on: NCI-H522
Test: cells
Set-up: species or system NCI human tumour cell line panel; NCI one-dose anti-proliferative screen, human tumour cell line panel, growth inhibition percent (GI%)
Conditions: Homo sapiens, NCI-H522; growth inhibition (GI%), single dose
One number for each entry, in %.

compound="CCn1c(=S)[nH]c2c(nnn2-c2ccc(S(N)(=O)=O)cc2)c1=N [compound 20]" reported_measurement=7.8
compound="Nc1nc(=S)[nH]c2c1nnn2-c1ccc(S(N)(=O)=O)cc1 [compound 18]" reported_measurement=13.7
compound="N#Cc1nnn(-c2ccc(S(N)(=O)=O)cc2)c1N [compound 3, 3]" reported_measurement=9.7

Field: next compound
[ask] # query: inhibition at 10 µM of entry N#Cc1nnn(-c2ccc(S(N)(=O)=O)cc2)c1NCC(=O)c1ccccc1 [compound 7, 7]
[reply] 16.1

----------
Assign inhibition at 10 µM to each entry below.
Tested on: T-47D
Assay: cells
Parameters: species or system NCI human tumour cell line panel; NCI one-dose anti-proliferative screen, human tumour cell line panel, growth inhibition percent (GI%)
Settings: Homo sapiens, T47D; growth inhibition (GI%), single dose
Numbers only, in %.

smi=N#Cc1nnn(-c2ccc(S(N)(=O)=O)cc2)c1N measure_unit=% reported_measurement=5.1
smi=Nc1nc(=S)[nH]c2c1nnn2-c1ccc(S(N)(=O)=O)cc1 measure_unit=% reported_measurement=5.8
smi=N#Cc1nnn(-c2ccc(S(N)(=O)=O)cc2)c1NS(=O)(=O)c1ccccc1 measure_unit=% reported_measurement=9.6
smi=N#Cc1nnn(-c2ccc(S(N)(=O)=O)cc2)c1NCC(=O)c1ccccc1 measure_unit=% reported_measurement=4.6
smi=N#Cc1nnn(-c2ccc(S(N)(=O)=O)cc2)c1/N=C/c1ccc(Cl)cc1 measure_unit=% reported_measurement=11.5
smi=N#Cc1c(-c2ccc(Cl)cc2)nc2c(nnn2-c2ccc(S(N)(=O)=O)cc2)c1N measure_unit=% reported_measurement=5.6

Field: next compound
[ask] # query: inhibition at 10 µM of entry `CN(C)c1ccc(-c2nc3c(nnn3-c3ccc(S(N)(=O)=O)cc3)c(N)c2C#N)cc1`
[reply] 5.2

----------
Assign inhibition at 10 µM to each entry below.
Test system: NCI-H522
Assay: cells
Set-up: species or system NCI human tumour cell line panel; NCI one-dose anti-proliferative screen, human tumour cell line panel, growth inhibition percent (GI%)
Settings: Homo sapiens, NCI-H522; growth inhibition (GI%), single dose
Description: Ten of the newly synthesised 1,2,3-triazolo benzenesulfonamide derivatives were selected by NCI (Bethesda, MD) for evaluating their anti-proliferative activity. The selected compounds were subjected to a primary in vitro one-dose ([…]) anti-proliferative assay against 57 human tumour cell lines following the previously reported method[30] and their obtained growth inhibition percent (GI%) are presented in Table 2. […]
Give bare numbers, in %.

Here are 3 compounds together with their reported answers.
smi=N#Cc1nnn(-c2ccc(S(N)(=O)=O)cc2)c1NS(=O)(=O)c1ccccc1 tested_target=NCI-H522 readout_type="inhibition at 10 µM" measure_unit=% reported_measurement=10.3
smi=N#Cc1nnn(-c2ccc(S(N)(=O)=O)cc2)c1/N=C/c1ccc(Cl)cc1 tested_target=NCI-H522 readout_type="inhibition at 10 µM" measure_unit=% reported_measurement=10.5
smi=CN(C)c1ccc(-c2nc3c(nnn3-c3ccc(S(N)(=O)=O)cc3)c(N)c2C#N)cc1 tested_target=NCI-H522 readout_type="inhibition at 10 µM" measure_unit=% reported_measurement=14.8

[ask] # query: inhibition at 10 µM of entry `N#Cc1c(-c2ccc(Cl)cc2)nc2c(nnn2-c2ccc(S(N)(=O)=O)cc2)c1N`
[reply] 9.8
